Target: KRas G12A (Homo sapiens, UniProt P01116, G12A)
Sequence (P01116 1-169 isoform P01116-2 G12A): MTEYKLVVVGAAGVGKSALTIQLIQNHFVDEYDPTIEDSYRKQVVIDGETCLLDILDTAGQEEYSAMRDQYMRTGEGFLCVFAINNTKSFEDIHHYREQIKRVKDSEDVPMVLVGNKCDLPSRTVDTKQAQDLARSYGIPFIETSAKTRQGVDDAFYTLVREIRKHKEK
Type: binding
Settings: single point, 10 nM compound, read-out: Binding to KRas (% inhibition at 10 nM) G12A
property measured: inhibition at 0.01 µM (%)
The reply should be a number in %, with the unit left off.

molecule	inhibition at 0.01 µM (%)
CCc1c(F)ccc2cc(O)cc(N3CCc4c(nc(OC[C@@]56CCCN5C[C@H](F)C6)nc4N4CCCn5nc(C(=O)NCCOCCOC)cc5C4)C3)c12	96

stdin: Returns the measured inhibition at 0.01 µM for the input molecule. Input: CCc1c(F)ccc2cc(O)cc(N3CCc4c(nc(OC[C@@]56CCCN5C[C@H](F)C6)nc4N4CCCn5nc(C(=O)N6C7CCCC6CC7)cc5C4)C3)c12
stdout: 87

stdin: Returns the measured inhibition at 0.01 µM for the input molecule. Input: CCc1c(F)ccc2cc(O)cc(N3CCc4c(nc(OC[C@@]56CCCN5C[C@H](F)C6)nc4N4CCCn5nc(NC)c(OC)c5C4)C3)c12
stdout: 66

stdin: Returns the measured inhibition at 0.01 µM for the input molecule. Input: CCc1c(F)ccc2cc(O)cc(N3CCc4c(nc(OC[C@@]56CCCN5C[C@H](F)C6)nc4N4CCCn5nc(C(=O)N6CC7CCC(C7)C6)cc5C4)C3)c12
stdout: 85

====

Target: KRas G13D (Homo sapiens, UniProt P01116, G13D)
Sequence (P01116 1-169 isoform P01116-2 G13D): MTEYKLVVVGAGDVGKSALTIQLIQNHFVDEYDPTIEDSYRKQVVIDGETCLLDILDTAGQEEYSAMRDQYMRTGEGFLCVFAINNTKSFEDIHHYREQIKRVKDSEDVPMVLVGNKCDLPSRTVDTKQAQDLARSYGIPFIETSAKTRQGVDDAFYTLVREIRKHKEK
Type: binding
Details: TR-FRET displacement, read-out: Binding to KRas (IC50 nM) G13D
Below, each of the compounds is paired with its reported IC50 value.
The reply should be a number in nM, with the unit left off.

compound	reported value
CCc1cccc2cccc(N3CCc4c(nc(OCC5(CN(C)C)CC5)nc4NCCc4sc(N)nc4C)C3)c12	1970

stdin: Returns the measured IC50 for the input compound. Input: CCc1cccc2cccc(N3CCc4c(nc(OCC5(CN(C)C)CC5)nc4N4Cc5cn[nH]c5CC(C)C4)C3)c12 (stereo not drawn)
stdout: 18200

stdin: Returns the measured IC50 for the input compound. Input: Cc1cc2[nH]ncc2c(N2CCc3c(nc(OC[C@@]45CCCN4C[C@H](F)C5)nc3N3CCC[C@]4(C3)NC(=O)NC4=O)C2)c1C
stdout: 6

====

Below, each of the compounds is paired with its reported log10(IC50) value.
Target: KRas G12D (Homo sapiens, UniProt P01116, G12D)
Sequence (P01116 1-169 isoform P01116-2 G12D): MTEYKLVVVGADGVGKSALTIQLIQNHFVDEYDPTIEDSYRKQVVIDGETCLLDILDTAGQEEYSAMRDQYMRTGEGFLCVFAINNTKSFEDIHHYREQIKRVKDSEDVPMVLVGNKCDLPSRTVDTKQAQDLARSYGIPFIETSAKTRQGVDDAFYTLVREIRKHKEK
Experiment: biochemical
Conditions: Binding to KRas (IC50 nM) G12D, TR-FRET displacement, KRas G12D
The figures below represent log10 of IC50, where IC50 is stated in nM.

Known log10(IC50) results, listed for orientation:
compound	log10(IC50)
C=C1CN2CC(=C)CC2(COc2nc3c(c(N4CCC[C@@](C)(O)C4)n2)CCN(c2cc(O)cc4ccc(F)c(CC)c24)C3)C1	0.48
CCc1c(F)ccc2cc(O)cc(N3CCc4c(nc(OC[C@@]56CCCN5C[C@H](F)C6)nc4N4CCCCC(COC(C)C(=O)N(C)C)C4)C3)c12 (stereo partly shown)	1.36

stdin: Entry CN(C)C(=O)c1cc2n(n1)CCCN(c1nc(OC[C@@]34CCCN3C[C@H](F)C4)nc3c1CCN(c1cccc4cccc(Cl)c14)C3)C2 , system KRas G12D (Homo sapiens, UniProt P01116, G12D): what log10(IC50) was measured?
stdout: 0.95

stdin: Entry CCc1cccc2cccc(N3CCc4c(nc(OCC5(CN(C)C)CC5)nc4N4CCN(C(=O)c5c[nH]c(=O)[nH]5)CC4)C3)c12 , system KRas G12D (Homo sapiens, UniProt P01116, G12D): what log10(IC50) was measured?
stdout: 3.90

====

Below, each of the molecules is paired with its reported inhibition at 0.1 µM value.
Tested on: H727 cells
Experiment: Inhibition of KRas-mediated phosphorylation of ERK (Cisbio HTRF pERK), H727 cells
Format: cell-based
Settings: Homo sapiens, NCI-H727, single point at 100 nM, 3 hrs compound incubation
The reply should be a number in %, with the unit left off.

Known inhibition at 0.1 µM results, listed for orientation:
molecule	unit tag	reported value
CN(C)C(=O)c1cc2n(n1)CCCN(c1nc(OCC34CCCN3CCC4)nc3c1CCN(c1cc(O)cc(Cl)c1C1CC1)C3)C2 [Example 437]	%	-2
Oc1cc(Cl)c(C2CC2)c(N2CCc3c(nc(OCC45CCCN4CCC5)nc3N3CCC[C@]4(C3)C[C@H](O)C4)C2)c1 [Example 440]	%	-10
Oc1cc(Cl)c(C2CC2)c(N2CCc3c(nc(OCC45CCCN4CCC5)nc3N3CCC[C@]4(C3)C[C@@H](O)C4)C2)c1 [Example 441]	%	-17

Now look at this one.
stdin: Returns the measured inhibition at 0.1 µM for the input molecule. Input: CCc1c(F)ccc2cc(O)cc(N3CCc4c(nc(OC[C@@]56CCCN5C[C@H](F)C6)nc4N4CCCn5nc(C(=O)N6CC7CC6C7)cc5C4)C3)c12 [Example 342]
stdout: 80

====

Below, each of the compounds is paired with its reported IC50 value.
Target: KRas G12D (Homo sapiens, UniProt P01116, G12D)
Experiment: biochemical
Conditions: Binding to KRas (IC50 nM) G12D, TR-FRET displacement, KRas G12D
The reply should be a number in nM, with the unit left off.

Known IC50 results, listed for orientation:
compound	property measured	reported value
C=C1CN2CC(=C)CC2(COc2nc3c(c(N4C[C@@H]5C[C@H](C4)[C@H](O)C5)n2)CCN(c2cc(O)cc4ccc(F)c(CC)c24)C3)C1	IC50	7
CCc1c(F)ccc2cc(O)cc(N3CCc4c(nc(OC[C@@]56CCCN5C[C@H](F)C6)nc4N4CCCC5(CSC5)C4)C3)c12	IC50	5
CCc1cccc2cccc(N3CCc4c(nc(OCC5(CN(C)C)CC5)nc4N4CCCN(CC(F)(F)F)CC4)C3)c12	IC50	41700

stdin: Returns the measured IC50 for the input compound. Input: CCc1cccc2cccc(N3CCc4c(nc(OCC5(CN(C)C)CC5)nc4NC4CC(n5ccnn5)C4)C3)c12 (stereo not drawn)
stdout: 10700

====

Biological target: KRas G12S (Homo sapiens, UniProt P01116, G12S)
Sequence (P01116 1-169 isoform P01116-2 G12S): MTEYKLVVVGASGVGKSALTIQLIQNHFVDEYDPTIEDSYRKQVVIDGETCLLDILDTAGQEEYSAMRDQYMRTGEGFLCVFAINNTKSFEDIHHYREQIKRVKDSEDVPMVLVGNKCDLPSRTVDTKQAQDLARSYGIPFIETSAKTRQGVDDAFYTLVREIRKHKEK
Type: binding
Settings: TR-FRET displacement, read-out: Binding to KRas (IC50 nM) G12S
For each record, check the reported IC50: if it is below 20 nM write True, else write False.

Sample answers from the record:
molecule	class
C=C1CN2CCCC2(COc2nc3c(c(N4CC5CC(O)CC4C5)n2)CCN(c2cc(O)cc4ccc(F)c(CC)c24)C3)C1 (centres unmarked)	False
CCc1c(F)ccc2cc(O)cc(N3CCc4c(nc(OCC56CCCN5C/C(=C\F)C6)nc4N4CCCn5nc(C(=O)N(C)C)cc5C4)C3)c12 (centres unmarked)	True
CCc1cccc2cccc(N3CCc4c(nc(OCC5(CN(C)C)CC5)nc4NC4CCCc5[nH]ncc54)C3)c12 (centres unmarked)	False
CCc1cccc2cccc(N3CCc4c(nc(OCC5(CN(C)C)CC5)nc4N(C)Cc4nnc5n4CCOC5)C3)c12	False
CCc1cccc2cccc(N3CCc4c(nc(OCC5(CN(C)C)CC5)nc4N4CCn5nncc5C4)C3)c12	False
C[C@@]1(O)CCCN(c2nc(OC[C@@]34CCCN3C[C@H](F)C4)nc3c2CCN(c2ccc(F)c4sc(N)c(C#N)c24)C3)C1	True

stdin: Is the reported IC50 for CCc1cccc2cccc(N3CCc4c(nc(OCC5(CN(C)C)CC5)nc4NC4CC(n5ccnn5)C4)C3)c12 (centres unmarked) strictly below 20 nM?
stdout: False

stdin: Is the reported IC50 for C[C@@H]1C[C@@H]1c1c(Cl)cc(O)cc1N1CCc2c(nc(OC[C@@]34CCCN3C[C@H](F)C4)nc2N2CCC[C@@](C)(O)C2)C1 (stereo in doubt) strictly below 20 nM?
stdout: True

====

Below, each of the compounds is paired with its reported IC50 value.
Biological target: KRas G12V (Homo sapiens, UniProt P01116, G12V)
Sequence (P01116 1-169 isoform P01116-2 G12V): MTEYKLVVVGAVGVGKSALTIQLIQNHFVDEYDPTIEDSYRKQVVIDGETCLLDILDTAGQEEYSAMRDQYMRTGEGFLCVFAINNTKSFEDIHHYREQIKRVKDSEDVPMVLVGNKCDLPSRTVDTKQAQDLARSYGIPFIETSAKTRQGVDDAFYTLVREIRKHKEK
Assay: biochemical
Settings: Binding to KRas (IC50 nM) G12V, TR-FRET displacement, KRas G12V

Known IC50 results, listed for orientation:
compound	IC50
O=C1NCC12CCCN(c1nc(OC[C@@]34CCCN3C[C@H](F)C4)nc3c1CCN(c1cc(O)cc4ccc(F)c(Br)c14)C3)C2 (stereo partly drawn)	< 2 nM
Oc1cc(Cl)c(C2CC2)c(N2CCc3c(nc(OCC45CCCN4CCC5)nc3N3CCC[C@]4(C3)C[C@H](O)C4)C2)c1	13 nM
C[C@@H]1C[C@@H]1c1c(Cl)cc(O)cc1N1CCc2c(nc(OC[C@@]34CCCN3C[C@H](F)C4)nc2N2CCC[C@]3(CNS(=O)(=O)N3)C2)C1 (stereo in doubt)	< 2 nM

Now look at this one.
stdin: Returns the measured IC50 for the input compound. Input: CCc1c(F)ccc2cc(O)cc(N3CCc4c(nc(OC[C@@]56CCCN5C[C@H](F)C6)nc4N4CCCn5nc(C(=O)NC6CC6)cc5C4)C3)c12
stdout: < 2 nM
